target: Glucocorticoid receptor (Homo sapiens); assay: Agonist activity at glucocorticoid receptor in HFF assessed as inhibition of IL1-induced IL-6 production after 18 to 24 hrs relative to Dexamethasone; assay type: functional
attribute.measured: Efficacy (%)
# value in %; strip the unit string

Guide cases for Efficacy, answers given:
>>> measured_number("Cc1cc2c(c(C(C)(C)CC(O)(Cc3cc4ccccc4[nH]3)C(F)(F)F)c1)OCC2 (racemic)")
95
>>> measured_number("COc1ccc(F)cc1C(C)(C)CC(O)(Cc1cc2ccc(C)cc2[nH]1)C(F)(F)F (racemic)")
60
>>> measured_number("CC(C)(CC(O)(Cc1cc2cc(C#N)ccc2[nH]1)C(F)(F)F)c1cc(S(C)(=O)=O)cc2c1OCC2 (racemic)")
85

In one line, give reported Efficacy of the entry COc1ccc(F)cc1C(C)(C)CC(O)(Cc1cc2cccc(C)c2[nH]1)C(F)(F)F (racemic) .
26
